Read-out: Apolipoprotein A-V (APOA5) gene, APOA5 (gene 116519)
Assay: LTEA_HepaRG_APOA5: Life Technologies and Expression Analysis (LTEA) Assay for Apolipoprotein A-V (APOA5) gene using HepaRG (AID 2283474)
Details: mRNA level, 48 h; actives raise or lower the signal
Activity calls are given as the source filed them. Rule for the calls: active = hit-call score of the fitted dose curve at least 0.9, where 1 is the maximum; inactive = score below 0.9.
Outcomes: t (active), f (inactive)

> print(dat)
                                    molecule  assigned.category
 1  CCCCOC(=O)C(C)Oc1ccc(Oc2ccc(C(F)(F)F)cn2)cc1 (stereo unspecified)                  f
 2             CC(C)(c1ccc(O)cc1)c1ccc(O)cc1                  f
 3      Oc1ccc(C(c2ccc(O)cc2)C(Cl)(Cl)Cl)cc1                  t
 4                     O=C(c1ccccc1)C1CCCCC1                  f
 5  CCN(Cc1c(F)cccc1Cl)c1c([N+](=O)[O-])cc(C(F)(F)F)cc1[N+](=O)[O-]                  t
 6  COC(=O)c1ccc(I)cc1S(=O)(=O)NC(=O)Nc1nc(C)nc(OC)n1                  f
 7  CCCCC(CC)COC(=O)c1ccccc1C(=O)O (stereo unspecified)                  f
 8  CCC(C)OC(=O)N1CCCCC1CCO (stereo unspecified)                  f
 9                       CCOC(=O)c1ccc(O)cc1                  f
10  N[C@@H](Cc1cc(I)c(Oc2ccc(O)c(I)c2)c(I)c1)C(=O)O                  t
11  CC(=O)S[C@@H]1CC2=CC(=O)CC[C@]2(C)[C@H]2CC[C@@]3(C)[C@@H](CC[C@@]34CCC(=O)O4)[C@H]12                  t

====

Read-out: Bcl-2 (BAD) gene, BAD (gene 572)
Test: LTEA_HepaRG_BAD: Life Technologies and Expression Analysis (LTEA) Assay for Bcl-2 (BAD) gene using HepaRG (AID 2283469)
Conditions: mRNA level, 48 h; actives raise or lower the signal
Calls of active or inactive are those of the source. The calls were made as follows: active = hit-call score of the fitted dose curve at least 0.9, where 1 is the maximum; inactive = score below 0.9.
property: outcome

> print(dat)
                                    compound  observed.value
 1      Oc1ccc(C(c2ccc(O)cc2)C(Cl)(Cl)Cl)cc1        inactive
 2                   CCSC(=O)N(CC(C)C)CC(C)C        inactive
 3  CCOC(=O)COc1cc(-n2ncc(C(F)(F)F)c(C)c2=O)c(F)cc1Cl        inactive
 4             S=C([S-])NCCNC(=S)[S-].[Mn+2]        inactive
 5              CCCOC(=O)c1ccc(C(=O)OCCC)nc1        inactive
 6  Cc1nn(C)c(Oc2ccccc2)c1C=NOCc1ccc(C(=O)OC(C)(C)C)cc1        inactive
 7  CCCCC(CC)CN1C(=O)C2C3C=CC(C3)C2C1=O (stereo not given)        inactive
 8                  COc1c(Cl)ccc(Cl)c1C(=O)O        inactive
 9  CC(=O)[C@H]1CC[C@H]2[C@@H]3CCC4=CC(=O)CC[C@]4(C)[C@H]3CC[C@]12C        inactive
10                                     COCCO        inactive
11         O=C(O)C1(C(=O)Nc2ccc(Cl)cc2Cl)CC1        inactive
12  C[C@]12C[C@H](O)[C@H]3[C@@H](CCC4=CC(=O)CC[C@@]43C)[C@@H]1CC[C@@H]2C(=O)CO        inactive
13                    CC(C)CCCCCCc1ccc(O)cc1        inactive
14  COC(=O)c1ccc(I)cc1S(=O)(=O)NC(=O)Nc1nc(C)nc(OC)n1        inactive
15  N[C@@H](Cc1cc(I)c(Oc2ccc(O)c(I)c2)c(I)c1)C(=O)O        inactive

====

Read-out: Monokine induced gamma interferon (MIG), CXCL9 (gene 4283)
Assay: BSK_CASM3C_MIG: BioMAP Diversity Plus: CASM3C Assay for Monokine induced gamma interferon (MIG) Biomarker Activity (AID 2283048);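 note: MIG protein level measured by ELISA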
Conditions: primary human coronary artery smooth muscle cells; actives raise or lower the signal
Active and inactive are the calls of the source. The calls were made as follows: active = hit-call score of the fitted dose curve at least 0.9, where 1 is the maximum; inactive = score below 0.9.
property: AC50

> print(dat)
                            chemical.string     observed.value
1                      CSC(=O)c1cccc2nnsc12           inactive
2  CC(=O)S[C@@H]1CC2=CC(=O)CC[C@]2(C)[C@H]2CC[C@@]3(C)[C@@H](CC[C@@]34CCC(=O)O4)[C@H]12           inactive
3  CCCCCOC(=O)COc1cc(N2C(=O)C3=C(CCCC3)C2=O)c(F)cc1Cl   25.5 µM (active)
4  O=C(Nc1ccc([N+](=O)[O-])cc1Cl)c1cc(Cl)ccc1O  0.764 µM (active)
5             CC(C)(c1ccc(O)cc1)c1ccc(O)cc1           inactive
6               CN(C)C(=O)Nc1ccc(Cl)c(Cl)c1           inactive
7  COC(=O)c1ccccc1S(=O)(=O)NC(=O)Nc1nc(OC(F)F)cc(OC(F)F)n1           inactive

====

Experiment: CCTE_Shafer_MEA_acute_burst_number: CCTE's Neural Acute Assay for Single-Electrode Bursts, Shafer Lab (AID 2284013)
Calls of active or inactive are those of the source. Rule for the calls: active = hit-call score of the fitted dose curve at least 0.9, where 1 is the maximum; inactive = score below 0.9.
Outcomes: active, inactive

> print(dat)
                            chemical.string  assigned.category
1                       N#CSCSc1nc2ccccc2s1           inactive
2  O=C(Nc1ccc([N+](=O)[O-])cc1Cl)c1cc(Cl)ccc1O             active
3                    CC(C)CCCCCCc1ccc(O)cc1             active
4                     COC(=O)c1ccccc1C(=O)O           inactive
5  CCCN(CCC)c1c([N+](=O)[O-])cc(C(F)(F)F)c(N)c1[N+](=O)[O-]           inactive
6      Oc1ccc(C(c2ccc(O)cc2)C(Cl)(Cl)Cl)cc1             active

====

Assay: BSK_3C_VCAM1: BioMAP Diversity Plus: 3C Assay for Vascular cell adhesion molecule 1 (VCAM1) Biomarker Activity (AID 2282999)
Details: BioMAP 3C HUVEC, VCAM1 ELISA, cytokine-stimulated; actives raise or lower the signal
The source made the active and inactive calls. Rule for the calls: active = hit-call score of the fitted dose curve at least 0.9, where 1 is the maximum; inactive = score below 0.9.
Outcomes: True = active, False = inactive

> print(dat)
                                   compound  assigned.category
1                     O=C(c1ccccc1)C1CCCCC1              False
2  C[C@]12CC[C@@H]3c4ccc(O)cc4C[C@@H](CCCCCCCCCS(=O)CCCC(F)(F)C(F)(F)F)[C@H]3[C@@H]1CC[C@@H]2O (some centres undefined)              False
3  CCCN(CCC)c1c([N+](=O)[O-])cc(C(F)(F)F)c(N)c1[N+](=O)[O-]               True
4  C[C@]12C[C@H](O)[C@H]3[C@@H](CCC4=CC(=O)CC[C@@]43C)[C@@H]1CC[C@@H]2C(=O)CO              False

====

Read-out: Apoptosis regulator Bcl-2 (Homo sapiens) (UniProt P10415)
Sequence (P10415 whole entry, looked up): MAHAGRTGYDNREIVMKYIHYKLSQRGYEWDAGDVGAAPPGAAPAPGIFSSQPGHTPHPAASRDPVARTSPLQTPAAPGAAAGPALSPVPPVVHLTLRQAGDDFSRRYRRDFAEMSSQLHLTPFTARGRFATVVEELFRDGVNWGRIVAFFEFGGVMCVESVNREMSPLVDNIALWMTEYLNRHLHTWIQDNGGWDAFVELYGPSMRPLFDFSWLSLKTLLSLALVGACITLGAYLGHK
Experiment: LTEA_HepaRG_BCL2: Life Technologies and Expression Analysis (LTEA) Assay for Bcl-2 gene using HepaRG (AID 2283475);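 note: BCL2 transcript by TaqMan qRT-PCR normalised to ACTB GAPDH and POLR2A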
Conditions: mRNA level, 48 h; actives raise or lower the signal
The source made the active and inactive calls. How the source made its calls: active means hit-call score of the fitted dose curve at least 0.9, where 1 is the maximum; inactive means score below 0.9.
property: AC50

> print(dat)
                                   compound  property    observed.value
1                     O=C(c1ccccc1)C1CCCCC1      AC50          inactive
2  CCOC(=O)C(C)Oc1ccc(Oc2cnc3cc(Cl)ccc3n2)cc1 (configuration not stated)      AC50          inactive
3  C#CCOC(=O)[C@@H](C)Oc1ccc(Oc2ncc(Cl)cc2F)cc1      AC50          inactive
4  CCCN(CCC)c1c([N+](=O)[O-])cc(C(F)(F)F)c(N)c1[N+](=O)[O-]      AC50          inactive
5                      CSC(=O)c1cccc2nnsc12      AC50          inactive
6  O=C(Nc1ccc([N+](=O)[O-])cc1Cl)c1cc(Cl)ccc1O      AC50  3.54 µM (active)
7  C=CCOC(Cn1ccnc1)c1ccc(Cl)cc1Cl (configuration not stated)      AC50  13.7 µM (active)

Where do the numbers come from? From PubChem BioAssay (EPA / NIEHS).
